- Assay: SK-BR-3 cell growth inhibitors, pilot screen, 24 h, human (AID 572);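 note: compound exposure lasted between 18 and 24 h rather than exactly 24 h; 100% = carrier-treated control wells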
- Condition: SK-BR-3 viability, CellTiter-Glo luminescence, at 10 µM, stronger effect = lower value
Activity calls are given as the source filed them.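 Rule for the calls: active = viability at or below 10% of carrier control in both of two separate runs; inconclusive = viability at or below 10% in only one of the two runs; inactive = the rest.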
# reported viability; entries follow

Record excerpt, results attached:
Molecule	viability
N#Cc1c(NCc2ccccc2)ccnc1NCc1cccnc1	78% (inactive)
C=CCn1c(SCC(=O)Nc2ccc3c(c2)OCO3)nc2ccccc2c1=O	73% (inactive)

Ask | Please give measured viability of the following entry: Cc1ccc(C2C(C(=O)c3sc(C)nc3C)=C(O)C(=O)N2CCN(C)C)o1 (configuration not stated)
Reply | 93% (inactive)

Ask | Please give measured viability of the following entry: O=C(O)CCn1[nH]c(=O)ccc1=O
Reply | 87% (inactive)

Ask | Please give measured viability of the following entry: COc1ccc(OC)c(Nc2nc(-c3cccs3)cs2)c1
Reply | 82% (inactive)

Ask | Please give measured viability of the following entry: O=c1[nH]c2cc3c(cc2cc1C(c1nnnn1C1CCCCC1)N1CCSCC1)OCCO3 (configuration not stated)
Reply | 97% (inactive)

Ask | Please give measured viability of the following entry: O=C(COn1nnc2ccc(C(F)(F)F)cc21)Nc1nnc(-c2ccccc2)o1
Reply | 87% (inactive)

Ask | Please give measured viability of the following entry: CC1CNCCN1S(=O)(=O)c1cccc2cnccc12 (configuration not stated)
Reply | 100% (inactive)

Ask | Please give measured viability of the following entry: Cc1c(C(=O)NCc2ccccn2)sc2nc(-c3ccc(F)cc3)cn12
Reply | 119% (inactive)

Ask | Please give measured viability of the following entry: CN(Cc1ccc(-n2cccn2)cc1)C(=O)c1cnn2c1NC(c1ccco1)CC2C(F)(F)F (configuration not stated)
Reply | 74% (inactive)

Ask | Please give measured viability of the following entry: CC(C)OC(=O)CCCCCN1C(=O)CSC1=S
Reply | 108% (inactive)

Ask | Please give measured viability of the following entry: Cc1[nH]c2c(C)cccc2c(=O)c1Br
Reply | 104% (inactive)

Ask | Please give measured viability of the following entry: COc1ccccc1NC(=O)NC(N)=O
Reply | 102% (inactive)

Ask | Please give measured viability of the following entry: CCOc1ccccc1-n1c(SCC(=O)NC2CCCC2)nnc1-c1ccoc1C
Reply | 77% (inactive)

Ask | Please give measured viability of the following entry: NS(=O)(=O)c1cc2c(cc1C(F)(F)F)NCNS2(=O)=O
Reply | 100% (inactive)

Ask | Please give measured viability of the following entry: COc1ccccc1C1N(c2ccc(F)cc2)C(=O)C2CCCN21 (configuration not stated)
Reply | 102% (inactive)

Ask | Please give measured viability of the following entry: CCOC(=O)c1[nH]c2cc(OC)c(OC)cc2c1NC(=O)C(C)N1CCN(Cc2ccccc2)CC1 (configuration not stated)
Reply | 73% (inactive)

---

- Assay: reversal of MRP1-mediated doxorubicin resistance, pilot screen, H69AR cells, doxorubicin co-treatment (AID 601)
- Condition: H69AR cells, CellTiter-Glo, 72 h; compound alone cytotoxicity; at 10 µM
Define the label as rule met when viability is strictly less than 90% and as rule not met in all remaining cases.

Field: example entries. Status: answers known.
Molecule	Label
CC1(C)CC(=O)C2=C(C1)Nc1ccccc1N=C2	rule met
CSc1ncc(Cl)c(C(=O)Nc2ccc(S(=O)(=O)N3CCOCC3)cc2)n1	rule not met
CCOC(=O)Cn1nnnc1CN(Cc1ccc(OC)cc1)Cc1cc2cc(C)ccc2[nH]c1=O	rule not met
Cc1ccc(C(=O)CSc2nnc(CNc3ccc(C)cc3C)o2)cc1	rule met
CC(=O)O[C@@]12CO[C@@H]1C[C@H](O)[C@@]1(C)C(=O)[C@H](O)C3=C(C)[C@@H](OC(=O)[C@H](O)[C@@H](NC(=O)OC(C)(C)C)c4ccccc4)C[C@](O)([C@@H](OC(=O)c4ccccc4)[C@H]21)C3(C)C	rule met

Ask | Please state whether viability is below 90% for C=CCSC1=C(C#N)C(c2ccccc2C)CC(=O)N1 (configuration not stated)
Reply | rule met

Ask | Please state whether viability is below 90% for c1cnc(NCCNc2ncccn2)nc1
Reply | rule not met

Ask | Please state whether viability is below 90% for C(=N/n1c2ccccc2c2ccccc21)/c1ccco1
Reply | rule met

Ask | Please state whether viability is below 90% for COc1ccc(Cl)c(N2CCN(CCCNC(=O)Nc3ccc(C)cc3)CC2)c1
Reply | rule met

Ask | Please state whether viability is below 90% for COc1cc2nc(SCC(=O)NC3CC3)n(CCC3=CCCCC3)c(=O)c2cc1OC
Reply | rule met

---

- Assay: SK-BR-3 cell growth inhibitors, pilot screen, 24 h, human (AID 572);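 note: compound exposure lasted between 18 and 24 h rather than exactly 24 h; 100% = carrier-treated control wells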
- Condition: SK-BR-3 viability, CellTiter-Glo luminescence, at 10 µM, stronger effect = lower value
Measurement label: viability (%)
Dear colleague, please return just the value in %, with no unit written.

Ask | Please give measured viability of the following entry: N#Cc1c(N)n(CCOC(=O)c2cccc(Br)c2)c2nc3ccccc3nc12
Reply | 111

---

# reported inhibition; entries follow
- Assay: 384-well plate pilot, post-Golgi transport modulator project, inhibition of yeast transport mutant growth (AID 636)
- Condition: absorbance 615 nm, about 18 h, stronger effect = higher value
Dear colleague, please return just the value in %, with no unit written.

Molecule	inhibition [%]
Clc1ccc2c(c1)C(N1CCNCC1)=Nc1ccccc1O2	-1.3

Ask | Please give measured inhibition of the following entry: Cn1c(=O)[nH]c(=O)c2c1nc(Br)n2Cc1ccccc1F
Reply | 3.15

Ask | Please give measured inhibition of the following entry: O=C(OCCCN1C(=O)c2ccccc2C1=O)c1ccco1
Reply | 0.79

Ask | Please give measured inhibition of the following entry: CC12C(=O)N(CCC(=O)O)C(=O)C1C1C=CC2C1 (stereo not drawn)
Reply | -2.37

Ask | Please give measured inhibition of the following entry: CCOC(=O)c1ccc(NC(=O)CSC2=NC(=O)C(CC)C(=O)N2)cc1 (stereo not drawn)
Reply | 0.78

---

- Assay: HUVEC growth inhibition – cell-based, human, primary screen (AID 575);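 note: 100% = median of untreated cell wells with 0.1% DMSO on each plate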
- Condition: HUVEC proliferation, CellTiter-Glo luminescence, 72 h; at 10 µM; stronger effect = lower value
Define the label as rule met when viability is strictly less than 90% and as rule not met in all remaining cases.

Field: example entries. Status: answers known.
Molecule	Label
Cc1cc(Cl)ccc1OCC(=O)Nn1c(C)ccc1C	rule not met
COc1ccc(Cc2nc3ccc(S(N)(=O)=O)cc3[nH]2)cc1OC	rule not met
CCOc1ccc(N2CC(C(=O)NCCc3ccc(OC)c(OC)c3)CC2=O)cc1 (stereo unspecified)	rule not met

Ask | Please state whether viability is below 90% for COc1ccccc1CC(=O)NCc1ccc2c(c1)OCO2
Reply | rule not met

Ask | Please state whether viability is below 90% for CNC(=O)c1ccc2nc(NC(C)=O)sc2c1
Reply | rule not met

Ask | Please state whether viability is below 90% for O=C(CN1C(=O)CC(c2ccco2)Sc2ccccc21)Nc1ccc2c(c1)OCCO2 (stereo unspecified)
Reply | rule not met

Ask | Please state whether viability is below 90% for COc1cc(/C=C/C(=O)CC(=O)/C=C/c2ccc(O)c(OC)c2)ccc1O
Reply | rule met

Ask | Please state whether viability is below 90% for O=S1(=O)CCN2C(=N1)SC1=C2CCN(Cc2ccccc2)C1
Reply | rule not met

---

- Assay: HUVEC growth inhibition – cell-based, human, primary screen (AID 575);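 note: 100% = median of untreated cell wells with 0.1% DMSO on each plate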
- Condition: HUVEC proliferation, CellTiter-Glo luminescence, 72 h; at 10 µM
Activity calls are given as the source filed them.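 The calls were made as follows: active = viability at or below 30% in both replicate assays; inconclusive = viability at or below 30% in just one of the two assays; inactive = the rest.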
Hi! Could you answer with just one of these? active, inactive

Field: example entries. Status: answers known.
Compound	Label
Cc1cc(N2C(=O)CC(N3CCN(c4ccc(C(=O)c5cccs5)cc4)CC3)C2=O)no1 (centres undefined)	inactive
O=P(CCNCc1ccco1)(c1ccccc1)c1ccccc1	inactive
Cn1c(=O)c2c(nc(Br)n2CCSc2nnnn2-c2ccccc2)n(C)c1=O	inactive
CC(=O)NCC(=O)OC(C)C(=O)Nc1ccc(C(C)=O)cc1 (centres undefined)	inactive
CN(C)C(=O)CSc1nnc2sc3ccccc3n12	inactive
CCC1CCCCN1S(=O)(=O)c1ccc(C(=O)Nc2nnc(-c3ccccc3Cl)o2)cc1 (centres undefined)	active
Cc1cc(NS(=O)(=O)c2ccc(NC(=O)C(C)N3C(=O)c4ccccc4C3=O)cc2)nc(C)n1 (centres undefined)	inactive
CC(=O)CC(=O)Nc1ccccc1NC(C)=O	inactive

Ask | Please indicate how the test categorized C=CCNc1nc2c(c(=O)n(C)c(=O)n2C)n1CCCCCC .
Reply | inactive

---

- Assay: reversal of MRP1-mediated doxorubicin resistance, pilot screen, H69AR cells, doxorubicin co-treatment (AID 601)
- Condition: H69AR cells, CellTiter-Glo, 72 h; compound alone cytotoxicity; at 10 µM
# reported viability; entries follow
Dear colleague, please return just the value in %, with no unit written.

Record excerpt, results attached:
Compound	Unit string	viability
Cc1cc(C(C)(C)C)cc(C)c1CC1=NCCN1	%	89.9
C=CCOC(=O)C1=C(C)NC(=O)NC1c1cn(-c2ccccc2)nc1-c1cccs1 (stereo not drawn)	%	91

As a next step, examine the compound that follows.
Ask | Please give measured viability of the following entry: COc1ccc(C(C)NC(=O)c2ccoc2C)cc1OC (stereo not drawn)
Reply | 89.8
